System: Danio rerio larvae Tg(actc1b:ZsGreen-LC3), 3 dpf
experimental protocol: LC3 puncta relative area vs vehicle, without NH4Cl (log2 fold change); higher = more autophagosomes
assay context: 10 µM; treatment time 16 h; NH4Cl: none
Structures can show the parent of a compound that is named as a salt.
Please use met whenever LC3 puncta (log2) is not below -0.02, and not met whenever it is.

Sample answers from the record:
compound: CCC(C)N(C)C(=O)c1cc2ccccc2c(-c2ccccc2Cl)n1 (stereo not given)
category: not met

compound: COc1ccc(CCN(C)CCc2ccc(OC)c(OC)c2)cc1OC [YS-035 hydrochloride]
category: met

compound: O=C1CN(/N=C/c2ccc(-c3ccc([N+](=O)[O-])cc3)o2)C(=O)N1 [Dantrolene, sodium salt]
category: met

compound: N[C@H](C(=O)O)c1ccc(C(=O)O)c(O)c1 [(S)-4-Carboxy-3-hydroxyphenylglycine]
category: not met

compound: CC(N)(Cc1ccc(O)c(O)c1)C(=O)O (stereo not given)
category: met

compound: NS(=O)(=O)c1cccc2c1c([N+](=O)[O-])cc1nc(O)c(O)nc12
category: met

IN: Identify whether the reported LC3 puncta (log2) of the following compound is -0.02 or greater: Clc1cccc(Nc2nnc(-c3ccccc3)c3ccccc23)c1
OUT: met

IN: Identify whether the reported LC3 puncta (log2) of the following compound is -0.02 or greater: CC(=O)NCC(=O)N[C@H](CCC(=O)O)C(=O)O
OUT: not met

IN: Identify whether the reported LC3 puncta (log2) of the following compound is -0.02 or greater: Nc1nc2ccc(OC(F)(F)F)cc2s1
OUT: met

IN: Identify whether the reported LC3 puncta (log2) of the following compound is -0.02 or greater: c1ccc2nc(C3=NCCN3)cnc2c1 [BU 239 hydrochloride]
OUT: not met
